System: HLA-A*02:03
Procedure Summary: IEDB peptide-MHC binding, purified MHC/competitive/radioactivity; bounds were set here for any values at or beyond the usual limits of such assays
Applied Conditions: source organism: Vaccinia virus WR
Cut-off 100 nM on IC50: below means YES, at or above means NO.

> print(dat)
    sequence.chain       system  assigned.label
 1      KLPTWLGAAI  HLA-A*02:03              NO
 2      IASSMKGENV  HLA-A*02:03              NO
 3      FVTDYVHEGV  HLA-A*02:03             YES
 4      KIIAVFDSKL  HLA-A*02:03             YES
 5      FVYVSVMNFI  HLA-A*02:03             YES
 6       IISYIILFI  HLA-A*02:03             YES
 7       LMTLDDLAI  HLA-A*02:03             YES
 8      YVIRHVDGKI  HLA-A*02:03              NO
 9      STFNMWREIL  HLA-A*02:03              NO
10      IVAMLLTHGA  HLA-A*02:03              NO
11      FLQISRVNDL  HLA-A*02:03             YES
12      DAKRNSKSLV  HLA-A*02:03              NO
13      LIKTLSPAHL  HLA-A*02:03              NO
14       TIGTIAGGV  HLA-A*02:03             YES
15       FIVYGRSNA  HLA-A*02:03              NO
16      ELAYYNSCML  HLA-A*02:03              NO
17      TILATLNTLI  HLA-A*02:03             YES
18      LIAGIILLIL  HLA-A*02:03              NO
19       YISRDELWA  HLA-A*02:03              NO
20       TLNTLITLI  HLA-A*02:03             YES
21      LAELLEMKYA  HLA-A*02:03              NO
